Test: Cytotoxicity against human A253 cells after 96 hrs by SRB assay
Format: functional, cell-based
Conditions: Homo sapiens, A253, 96 h; read-out: IC50
pIC50: −log10 of the molar value.
Each entry gets false if its pIC50 stays under 6, and true if its pIC50 is 6 or above.

Field: example entries. Status: answers known.
C=C(C)[C@@H]1CC[C@]2(C(=O)OC)CC[C@]3(C)[C@H](CC[C@@H]4[C@@]5(C)C[C@@H](CS(=O)(=O)CCO)C(=O)C(C)(C)[C@@H]5CC[C@]43C)[C@@H]12 :: false
C=C(C)[C@@H]1CC[C@]2(C(=O)OC)CC[C@]3(C)[C@H](CC[C@@H]4[C@@]5(C)C/C(=C\C)C(=O)C(C)(C)[C@@H]5CC[C@]43C)[C@@H]12 :: false
C=C1C[C@]2(C)[C@H]3CC[C@@H]4[C@H]5[C@H](C(=C)C)CC[C@]5(C(=O)OC)CC[C@@]4(C)[C@]3(C)CC[C@H]2C(C)(C)C1=O :: false
C=C1C[C@]2(C)[C@H]3CC[C@@H]4[C@H]5[C@H](C(=C)C)CC[C@]5(C(=O)O)CC[C@@]4(C)[C@]3(C)CC[C@H]2C(C)(C)C1=O :: true

In the following, a different compound is considered.
INPUT: Hello, I need to know if C=C/C=C1/C[C@]2(C)[C@H]3CC[C@@H]4[C@H]5[C@H](C(=C)C)CC[C@]5(C(=O)OC)CC[C@@]4(C)[C@]3(C)CC[C@H]2C(C)(C)C1=O has measured pIC50 not below 6. Thanks!
OUTPUT: false

----------
Here the recorded IC50 is given for each entry.
Experiment: Cytotoxicity against human Lipo cells after 96 hrs by SRB assay
Format: functional, cell-based
Conditions: Homo sapiens, Lipo, 96 h; read-out: IC50
The answer is to be given in nM; state only the numeric part.

C=C/C=C1/C[C@]2(C)[C@H]3CC[C@@H]4[C@H]5[C@H](C(=C)C)CC[C@]5(C(=O)OC)CC[C@@]4(C)[C@]3(C)CC[C@H]2C(C)(C)C1=O :: 11600

INPUT: Query (molecule): C=C(C)[C@@H]1CC[C@]2(C(=O)OC)CC[C@]3(C)[C@H](CC[C@@H]4[C@@]5(C)C[C@@H](CS(=O)(=O)CCO)C(=O)C(C)(C)[C@@H]5CC[C@]43C)[C@@H]12 ; field requested: IC50
OUTPUT: 2700

INPUT: // next record C=C(C)[C@@H]1CC[C@]2(C(=O)OC)CC[C@]3(C)[C@H](CC[C@@H]4[C@@]5(C)C/C(=C\C)C(=O)C(C)(C)[C@@H]5CC[C@]43C)[C@@H]12
OUTPUT: 27800

INPUT: // next record C=C1C[C@]2(C)[C@H]3CC[C@@H]4[C@H]5[C@H](C(=C)C)CC[C@]5(C(=O)N5CCSCC5)CC[C@@]4(C)[C@]3(C)CC[C@H]2C(C)(C)C1=O
OUTPUT: 1500

INPUT: // next record C=C(C)[C@@H]1CC[C@]2(C(=O)OC)CC[C@]3(C)[C@H](CC[C@@H]4[C@@]5(C)C[C@@H](CSCCO)C(=O)C(C)(C)[C@@H]5CC[C@]43C)[C@@H]12
OUTPUT: 1800

INPUT: // next record C=C1C[C@]2(C)[C@H]3CC[C@@H]4[C@H]5[C@H](C(=C)C)CC[C@]5(C(=O)OC)CC[C@@]4(C)[C@]3(C)CC[C@H]2C(C)(C)C1=O
OUTPUT: 4600

INPUT: // next record C=C1C[C@]2(C)[C@H]3CC[C@@H]4[C@H]5[C@H](C(=C)C)CC[C@]5(C(=O)O)CC[C@@]4(C)[C@]3(C)CC[C@H]2C(C)(C)C1=O
OUTPUT: 600

INPUT: // next record C=C1C[C@]2(C)[C@H]3CC[C@@H]4[C@H]5[C@H](C(=C)C)CC[C@]5(C=O)CC[C@@]4(C)[C@]3(C)CC[C@H]2C(C)(C)C1=O
OUTPUT: 2700
